Values from ChEMBL document CHEMBL2029259

Tested on: A549
Test: Antiproliferative activity against human A549 cells expressing wild type EGFR coexpressing k-Ras mutant after 72 hrs by MTS assay
Conditions: A549, 72 h
Each entry below carries its reported pIC50.
Give only the number. pIC50 is defined as minus log10 of concentration in molar units.

Molecule smiles | pIC50
C=CC(=O)Nc1cccc(N2C(=O)N(C)Cc3cnc(Nc4ccc(N5CCN(C)CC5)cc4)nc32)c1 | 4.95

**Q:** Param item = `C=CC(=O)Nc1cccc(N2C(=O)N(C)Cc3cnc(Nc4ccc(N5CCCCC5)cc4OC)nc32)c1` ; retrieve measured pIC50.
**A:** 4.92

**Q:** Param item = `C=CC(=O)Nc1cccc(N2C(=O)N(C)Cc3cnc(Nc4ccc(N5CCN(C)CC5)cc4F)nc32)c1` ; retrieve measured pIC50.
**A:** 4.95

**Q:** Param item = `C=CC(=O)Nc1cccc(N2C(=O)N(C)Cc3cnc(Nc4ccccc4)nc32)c1` ; retrieve measured pIC50.
**A:** 4.74

----------
Target: Epidermal growth factor receptor (Homo sapiens, UniProt P00533, L858R)
Sequence (P00533 25-1210 L858R limits assumed): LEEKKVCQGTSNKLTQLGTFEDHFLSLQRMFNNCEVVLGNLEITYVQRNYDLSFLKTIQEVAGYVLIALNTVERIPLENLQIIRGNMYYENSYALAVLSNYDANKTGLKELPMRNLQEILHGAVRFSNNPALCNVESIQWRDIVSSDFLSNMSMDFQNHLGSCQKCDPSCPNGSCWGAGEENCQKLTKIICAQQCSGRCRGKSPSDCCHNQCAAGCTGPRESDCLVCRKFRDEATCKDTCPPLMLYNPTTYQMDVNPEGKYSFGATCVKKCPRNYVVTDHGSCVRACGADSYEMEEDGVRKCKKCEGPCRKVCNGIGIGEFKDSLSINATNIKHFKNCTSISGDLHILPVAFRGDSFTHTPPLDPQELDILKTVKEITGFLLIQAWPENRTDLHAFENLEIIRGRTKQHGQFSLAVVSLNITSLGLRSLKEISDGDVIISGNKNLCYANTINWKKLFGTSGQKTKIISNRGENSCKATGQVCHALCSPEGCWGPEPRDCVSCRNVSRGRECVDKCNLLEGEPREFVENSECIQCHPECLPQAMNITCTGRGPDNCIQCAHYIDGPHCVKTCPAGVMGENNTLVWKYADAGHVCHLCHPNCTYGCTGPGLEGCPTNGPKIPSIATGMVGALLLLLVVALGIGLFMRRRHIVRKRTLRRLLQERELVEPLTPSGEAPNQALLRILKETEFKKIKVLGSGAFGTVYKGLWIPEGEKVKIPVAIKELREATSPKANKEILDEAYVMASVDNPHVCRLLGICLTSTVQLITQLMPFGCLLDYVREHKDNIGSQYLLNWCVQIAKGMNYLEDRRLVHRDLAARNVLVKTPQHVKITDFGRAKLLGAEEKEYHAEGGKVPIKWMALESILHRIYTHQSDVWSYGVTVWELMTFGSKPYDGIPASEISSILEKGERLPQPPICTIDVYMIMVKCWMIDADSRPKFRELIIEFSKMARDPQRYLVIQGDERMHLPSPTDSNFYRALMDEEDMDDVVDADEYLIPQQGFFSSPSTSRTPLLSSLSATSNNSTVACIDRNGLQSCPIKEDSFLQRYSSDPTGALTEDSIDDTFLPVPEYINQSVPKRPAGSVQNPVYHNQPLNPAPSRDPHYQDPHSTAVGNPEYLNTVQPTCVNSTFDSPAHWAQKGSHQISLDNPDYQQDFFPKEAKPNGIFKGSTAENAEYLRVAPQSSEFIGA
Assay: Inhibition of EGFR L858R mutant after 1.5 hr by FRET assay
pIC50: −log10 of the molar value.
Recorded endpoint: pIC50

Example cases with answers are listed next.
Molecule smiles | Test target | Value measured
CCC(=O)Nc1cccc(N2C(=O)N(C)Cc3cnc(Nc4ccc(N5CCN(C)CC5)cc4OC)nc32)c1 | Epidermal growth factor receptor (Homo sapiens, UniProt P00533, L858R) | < 6.00
C=CC(=O)Nc1cccc(N2C(=O)N(C)Cc3cnc(NC)nc32)c1 | Epidermal growth factor receptor (Homo sapiens, UniProt P00533, L858R) | < 6.00

**Q:** Param item = `COc1cc(N2CCN(C)CC2)ccc1Nc1ncc2c(n1)N(c1cccc(N)c1)C(=O)N(C)C2` ; retrieve measured pIC50.
**A:** < 6.00

----------
Each entry below carries its reported IC50.
Target: Epidermal growth factor receptor (Homo sapiens, UniProt P00533, L861Q)
Sequence (P00533 25-1210 L861Q limits assumed): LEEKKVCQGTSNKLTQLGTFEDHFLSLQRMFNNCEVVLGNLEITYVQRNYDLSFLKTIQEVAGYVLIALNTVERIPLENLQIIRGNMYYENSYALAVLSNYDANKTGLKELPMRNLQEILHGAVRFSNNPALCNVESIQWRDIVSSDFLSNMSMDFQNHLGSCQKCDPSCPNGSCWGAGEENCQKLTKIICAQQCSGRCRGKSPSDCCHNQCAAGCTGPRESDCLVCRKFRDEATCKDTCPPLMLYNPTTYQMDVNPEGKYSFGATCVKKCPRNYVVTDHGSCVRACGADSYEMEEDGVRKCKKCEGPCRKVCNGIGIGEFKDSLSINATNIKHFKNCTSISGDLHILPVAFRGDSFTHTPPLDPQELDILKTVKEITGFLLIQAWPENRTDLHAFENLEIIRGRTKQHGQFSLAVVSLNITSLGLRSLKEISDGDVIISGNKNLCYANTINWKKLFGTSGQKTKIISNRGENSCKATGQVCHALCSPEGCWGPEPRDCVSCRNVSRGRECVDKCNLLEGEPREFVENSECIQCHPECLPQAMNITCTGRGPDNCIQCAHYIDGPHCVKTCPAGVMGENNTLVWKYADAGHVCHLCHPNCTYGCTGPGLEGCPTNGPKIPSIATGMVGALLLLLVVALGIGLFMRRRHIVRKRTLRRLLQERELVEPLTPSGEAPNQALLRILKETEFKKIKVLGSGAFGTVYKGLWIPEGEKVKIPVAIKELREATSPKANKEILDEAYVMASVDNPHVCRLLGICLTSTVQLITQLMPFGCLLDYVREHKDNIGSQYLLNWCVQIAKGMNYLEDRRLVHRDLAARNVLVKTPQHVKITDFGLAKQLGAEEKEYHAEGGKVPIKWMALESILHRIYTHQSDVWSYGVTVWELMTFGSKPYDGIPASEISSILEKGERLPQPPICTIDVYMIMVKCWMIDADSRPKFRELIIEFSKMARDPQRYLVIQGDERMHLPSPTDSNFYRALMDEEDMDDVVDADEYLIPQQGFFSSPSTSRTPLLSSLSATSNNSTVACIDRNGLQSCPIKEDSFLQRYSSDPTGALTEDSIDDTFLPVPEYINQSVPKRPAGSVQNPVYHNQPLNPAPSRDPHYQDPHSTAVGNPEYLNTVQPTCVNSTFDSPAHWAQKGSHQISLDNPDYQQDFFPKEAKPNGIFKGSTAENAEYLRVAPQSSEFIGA
Assay: Inhibition of EGFR L861Q mutant after 1.5 hr by FRET assay
Your answer should be a plain number; it is taken to be in nM.

Molecule smiles | Test target | IC50 (nM)
C=CC(=O)Nc1cccc(N2C(=O)N(c3ccc(Oc4ccccc4)cc3)Cc3cnc(Nc4ccc(N5CCN(C)CC5)cc4OC)nc32)c1 | Epidermal growth factor receptor (Homo sapiens, UniProt P00533, L861Q) | 2.31
C=CC(=O)Nc1cccc(N2C(=O)N(C)Cc3cnc(Nc4ccc(N5CCC(N(C)C)CC5)cc4OC)nc32)c1 | Epidermal growth factor receptor (Homo sapiens, UniProt P00533, L861Q) | 2.83

Turning now to a further molecule:
**Q:** Epidermal growth factor receptor (Homo sapiens, UniProt P00533, L861Q) / IC50 / `C=CC(=O)Nc1cccc(N2C(=O)N(C)Cc3cnc(Nc4ccc(N5CCCN(C)CC5)cc4OC)nc32)c1` : value?
**A:** 2.75

----------
System: A549
Test: Antiproliferative activity against human A549 cells expressing wild type EGFR coexpressing k-Ras mutant after 72 hrs by MTS assay
Details: A549, 72 h
pIC50: −log10 of the molar value.
Recorded endpoint: pIC50

Example cases with answers are listed next.
Molecule smiles | pIC50
CCC(=O)Nc1cccc(N2C(=O)N(C)Cc3cnc(Nc4ccc(N5CCN(C)CC5)cc4OC)nc32)c1 | < 4.52
C=CC(=O)Nc1cccc(N2C(=O)N(C)Cc3cnc(Nc4ccc(N(C)C)cc4OC)nc32)c1 | < 4.70
C=CC(=O)Nc1cccc(N2C(=O)N(C)Cc3cnc(NC)nc32)c1 | < 4.70

Turning now to a further compound:
**Q:** Param item = `C=CC(=O)Nc1cccc(N2C(=O)N(C)Cc3cnc(Nc4ccc(N5CCCN(C)CC5)cc4OC)nc32)c1` ; retrieve measured pIC50.
**A:** < 4.70
